System: Klebsiella aerogenes
experiment_notes: microbe, parasite or virus in culture
Assay type: functional
applied_conditions: ATCC 13048, 24 h
Description: Antibacterial activity against Enterobacter aerogenes ATCC 13048 after 24 hrs by CLSI broth microdilution assay
Listed compounds paired with reported MIC

{"chemical_smiles": "Cc1ccc(-[n+]2nn(Cc3ccc(C(C)(C)C)cc3)cc2-c2ccccc2)cc1", "MIC": "> 250 µM"}
{"chemical_smiles": "Cc1ccc(-[n+]2nn(Cc3ccccc3)cc2-c2ccccc2)cc1", "MIC": "> 250 µM"}
{"chemical_smiles": "CCCCCCCCc1cn(-c2ccc(C)cc2)n[n+]1Cc1ccc(C(C)(C)C)cc1", "MIC": "16 µM"}

Qu. For Cc1ccc(-n2cc(-c3ccccc3)[n+](Cc3ccccc3)n2)cc1 , what is its reported MIC?
Ans. > 250 µM

###

Reported MIC values follow for various molecules
Tested on: Klebsiella aerogenes
experiment_notes: microbe, parasite or virus in culture
Assay type: functional
applied_conditions: ATCC 13048, 24 h

{"chemical_smiles": "CCCCCCCCCCCCc1cn(Cc2ccccc2)n[n+]1Cc1ccccc1", "MIC": "16 µM"}
{"chemical_smiles": "Cc1ccc(-n2cc(-c3ccccc3)[n+](Cc3ccc(C(C)(C)C)cc3)n2)cc1", "MIC": "> 250 µM"}
{"chemical_smiles": "CCCCc1cn(-c2ccc(C)cc2)n[n+]1Cc1ccc(C(C)(C)C)cc1", "MIC": "> 250 µM"}
{"chemical_smiles": "CCCCc1cn(Cc2ccccc2)n[n+]1Cc1ccc(C(C)(C)C)cc1", "MIC": "> 250 µM"}
{"chemical_smiles": "CCCCCCCCCCCCc1cn(Cc2ccccc2)n[n+]1Cc1ccc(C(C)(C)C)cc1", "MIC": "250 µM"}
{"chemical_smiles": "CCCCCCCCCCCCc1cn(-c2ccc(C)cc2)n[n+]1Cc1ccc(C(C)(C)C)cc1", "MIC": "250 µM"}
{"chemical_smiles": "CCCCCCCCc1cn(-c2ccc(C)cc2)n[n+]1Cc1ccccc1", "MIC": "> 250 µM"}
{"chemical_smiles": "CCCCCCCCc1cn(Cc2ccccc2)n[n+]1Cc1ccccc1", "MIC": "> 250 µM"}
{"chemical_smiles": "CCCCc1cn(Cc2ccccc2)n[n+]1Cc1ccccc1", "MIC": "> 250 µM"}
{"chemical_smiles": "CCCCc1cn(-c2ccc(C)cc2)n[n+]1Cc1ccccc1", "MIC": "> 250 µM"}

Qu. # value lookup — system Klebsiella aerogenes, readout MIC, item CCCCCCCCc1cn(Cc2ccccc2)n[n+]1Cc1ccc(C(C)(C)C)cc1
Ans. 31 µM

Qu. Moving on to CCCCCCCCCCCCc1cn(-c2ccc(C)cc2)n[n+]1Cc1ccccc1
Ans. 8 µM

Reference for the values: ChEMBL document CHEMBL4261591
